experiment: NCI Yeast Anticancer Drug Screen. Data for the rad50 strain (AID 155);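 note: 0% = growth of vehicle-only cultures of the same strain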; settings: S. cerevisiae rad50 strain growth inhibition; at 100.0 µM
About 79,000 compounds went through this panel and 15% of them were active in at least one assay; those are over-represented in the sample as a whole. The source made the active and inactive calls. Cut-off read from the data, not from the text of the source: active = growth inhibition above about 70%; inactive = the rest.
The reply should be one of these categories: class 1 for active, class 0 for inactive

// below: answered molecules
{"molecule": "CC1(C)CC(=O)C(C(=O)Nc2cccs2)=C(O)C1", "class_label": "class 1"}
{"molecule": "CCOC(=O)Nc1ccc(C)c(NC(=O)OCC)c1", "class_label": "class 0"}
{"molecule": "CN(C)CCNCCCNc1c2ccccc2nc2cccc([N+](=O)[O-])c12", "class_label": "class 1"}

Prompt: Answer briefly: the call reported for Cc1cccc2c(NCCCN(C)C)c3c([N+](=O)[O-])ccc(C)c3nc12 in this assay.
Response: class 1

Prompt: Try the molecule Oc1ccc(C2(c3ccc(O)cc3)CCCC2)cc1
Response: class 1

Prompt: And then CCS(=O)(=O)Nc1ccc(Nc2c3ccccc3nc3ccccc23)c(OC)c1 , what is it?
Response: class 1

Prompt: Cool, now CC(=O)Oc1ccc2c(c1)Cc1cc(N3C(=O)C=CC3=O)ccc1-2
Response: class 1

Prompt: Another molecule: CC1(c2ccccc2)O[C@@H]2C[C@H]3[C@@H]4CCC5=CC(=O)C=C[C@]5(C)[C@@]4(F)[C@@H](O)C[C@]3(C)[C@]2(C(=O)CO)O1 (stereo not given in full)
Response: class 1

Prompt: Would you mind doing CCOC(=O)/C(=C\c1ccc(F)cc1)C(C)=O as well?
Response: class 1

Prompt: Input CCOC(=O)CC1(C)/C(=N\Nc2ccc([N+](=O)[O-])cc2[N+](=O)[O-])CCC2C1CCC1(C)C(C(C)CCCC(C)C)CCC21 (stereo not given)
Response: class 0
